# Tested on: NCI-H23 lung
# protocol-notes: NCI tumour cell line growth inhibition, 48 h; in the data active means GI50 below about 0.43 µM; inactive means the rest
One label from this list, please: active, inactive

Consider the worked cases shown below.
item_smiles=O=C(Nc1ccncc1)C(=O)c1cn(S(=O)(=O)c2cccc(Cl)c2)c2ccccc12 discrete_label=inactive
item_smiles=Nc1ccccc1C#C/C=C\C#Cc1ccccc1C#CCO discrete_label=inactive
item_smiles=c1ccc(-c2[nH]ncc2-c2ccnc(-c3ccc(OCCN4CCOCC4)cc3)c2)nc1 discrete_label=inactive
item_smiles=CCCCC(=O)N(c1ccc(Nc2c3ccccc3nc3cc([N+](=O)[O-])ccc23)cc1)S(C)(=O)=O discrete_label=inactive
item_smiles=CCOc1cc(-c2nncn2C)ccc1Nc1ncc2cc(C)nc(NCC(C)(C)C)c2n1 discrete_label=inactive

**Q:** Please indicate how the test categorized `Cn1c(CCCC(=O)O)nc2cc(N(CCCl)CCCl)ccc21` .
**A:** inactive

**Q:** Each molecule tested received a call. Report the one for `COC(=O)[C@]12CC[C@@H](C)[C@H](C)[C@@H]1C1=CC[C@@H]3[C@@]4(C)C(C=O)=C[C@@](C)(CO)[C@@H]4[C@H](O)C[C@@]3(C)[C@]1(C)CC2` .
**A:** inactive

**Q:** Hello, I am checking results. What call was entered for `COc1ccc(OC)c(Nc2nc3nonc3nc2Nc2cccc(Br)c2)c1` ?
**A:** active
